# TARGET OR SYSTEM: KRAS G12D / Ras binding domain of C-RAF (Homo sapiens (Human), UniProt P01116, G12D)
# Sequence (P01116 other isoform, or with tags, fused parts or gaps G12D (already in the parent)): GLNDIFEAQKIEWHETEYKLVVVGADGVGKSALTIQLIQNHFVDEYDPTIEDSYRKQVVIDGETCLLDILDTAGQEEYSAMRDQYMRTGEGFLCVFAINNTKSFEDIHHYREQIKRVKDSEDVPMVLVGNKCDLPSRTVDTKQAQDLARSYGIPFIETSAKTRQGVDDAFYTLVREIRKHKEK
# METHOD NOTES: RAS:RAF-RBD binding assay (cRaf), TR-FRET
# APPLIED CONDITIONS: IC50 (nM) (cRaf), biotinylated KRAS G12D, GST-C-RAF RBD
Each record is given class 1 if its reported IC50 is strictly below 5000 nM. Records at or above 5000 nM are given class 0.

Example entries begin here.
INSERT INTO assay_data (compound, assigned_category) VALUES
  ('CN(C)C[C@@]1(COc2nc(N3C[C@H]4CC[C@@](C)(C3)N4)c3cc(F)c(-c4cc(O)cc5ccccc45)c(F)c3n2)CC1(F)F [Ex 69]', 'class 1'),
  ('Cc1cc2[nH]ncc2c(C2Cc3nc(OC[C@]4(CN(C)C)CC4(F)F)nc(N4C[C@H]5CC[C@@](C)(C4)N5)c3C(=O)O2)c1C(F)(F)F (single isomer, unassigned) [Ex. 96b]', 'class 1'),
  ('COC1CC2CN(c3nc(OCC4(CN(C)C)CC4)nc4c(F)c(-c5cc(O)cc6ccccc56)c(Cl)cc34)CC1N2 (stereo not drawn) [Example 26]', 'class 0'),
  ('CN(C)CC1(COc2nc(N3C[C@@]4(C)CC[C@H]3CN4)c3cc(Cl)c(-c4cc(O)cc5ccccc45)c(F)c3n2)CC1 (single isomer, unassigned) [Example 38a]', 'class 1'),
  ('Cc1cc2[nH]ncc2c(-c2c(F)cc3c(N4CC5CCC(C4)N5)nc(OCC4(CN5CCOCC5)CC4)nc3c2F)c1C(F)(F)F [Ex 72]', 'class 0'),
  ('Cc1cc(O)cc(-c2c(F)cc3c(N4CC5CCC(C4)N5)nc(OCC4(CN5CCOCC5)CC4)nc3c2F)c1SC(F)(F)F [Example 49]', 'class 0'),
  ('Oc1cc(-c2c(F)cc3c(N4CC5CC(O)C(C4)N5)nc(OCC4(CN5CCOCC5)CC4)nc3c2F)c2ccccc2c1 (single isomer, unassigned) [Example 17]', 'class 1'),
  ('Nc1nc2c(-c3c(Cl)cc4c(N5CC6CCC(C5)N6)nc(OCC5(CN6CCOCC6)CC5)nc4c3F)ccc(F)c2s1 [Example 62]', 'class 1');

Exercise: Consider the compound Cc1cc2[nH]ncc2c(-c2c(F)cc3c(N4C[C@H]5CC[C@@](C)(C4)N5)nc(OC[C@@H]4C[C@@H](F)CN4C)nc3c2F)c1C(F)(F)F [Example 67] . Is its IC50 strictly less than 5000 nM?
Solution: class 1

Exercise: Consider the compound CC[C@H]1N[C@H]2CC[C@@H]1N(c1nc(OCC3(CN(C)C)CC3)nc3c(F)c(-c4cc(O)cc5ccccc45)c(Cl)cc13)C2 [Example 39] . Is its IC50 strictly less than 5000 nM?
Solution: class 1

Exercise: Consider the compound CN(C)CC1(COc2nc(N3C[C@@H]4CC[C@](C)(C3)N4)c3cc(F)c(-c4cc(O)cc5ccccc45)c(F)c3n2)CC1 [Example 20] . Is its IC50 strictly less than 5000 nM?
Solution: class 0

Exercise: Consider the compound Cc1c(Cl)cc2[nH]nc(C)c2c1-c1c(F)cc2c(N3C[C@H]4CC[C@@](C)(C3)N4)nc(OCC3(CN4CC[C@@H](F)C4)CC3)nc2c1F [Ex 84] . Is its IC50 strictly less than 5000 nM?
Solution: class 0

Exercise: Consider the compound Cc1cc2[nH]nc(C)c2c(-c2c(F)cc3c(N4C[C@H]5CC[C@@](C)(C4)N5)nc(OC[C@]4(CN(C)C)CC4(F)F)nc3c2F)c1Cl [Ex 79] . Is its IC50 strictly less than 5000 nM?
Solution: class 1

Exercise: Consider the compound Nc1nc2c(-c3c(F)cc4c(N5CC6CCC(C5)N6)nc(OCC5(CN6CC[C@@H](F)C6)CC5)nc4c3F)ccc(F)c2s1 [Example 61] . Is its IC50 strictly less than 5000 nM?
Solution: class 1

Exercise: Consider the compound C#Cc1cccc2cc(O)cc(-c3c(F)cc4c(N5C[C@]6(C)CC[C@H]5CN6)nc(OC[C@@]56CCCN5C[C@H](F)C6)nc4c3F)c12 [compound 104] . Is its IC50 strictly less than 5000 nM?
Solution: class 1

Exercise: Consider the compound CN(C)CC1(COc2nc(N3C[C@@H]4C[C@H](O)C(C)(C3)N4)c3cc(Cl)c(-c4cc(O)cc5ccccc45)c(F)c3n2)CC1 (stereo in doubt) [Example 41] . Is its IC50 strictly less than 5000 nM?
Solution: class 1

Exercise: Consider the compound CN(C)CC1(COc2nc(N3CC4(C)CCC(C)(C3)N4)c3cc(F)c(-c4cc(O)cc5ccccc45)c(F)c3n2)CC1 [Example 32] . Is its IC50 strictly less than 5000 nM?
Solution: class 1

Exercise: Consider the compound Cc1cc2[nH]ncc2c(-c2c(F)cc3c(N4C[C@H]5CC[C@@](C)(C4)N5)nc(OC[C@@]45CCCN4C[C@H](F)C5)nc3c2F)c1C(F)(F)F [Ex 86] . Is its IC50 strictly less than 5000 nM?
Solution: class 1

Exercise: Consider the compound CN(C)CC1(COc2nc(N3C[C@H]4C[C@@H](O)[C@@H](C3)N4)c3cc(Cl)c(-c4cc(O)cc5ccccc45)c(F)c3n2)CC1 (single isomer, unassigned) [Example 18a] . Is its IC50 strictly less than 5000 nM?
Solution: class 1

Exercise: Consider the compound CN(C)C[C@@]1(COc2nc(N3C[C@H]4CC[C@@](C)(C3)N4)c3cc(Cl)c(-c4c(F)cc(F)c5ccc(N)nc45)c(F)c3n2)CC1(F)F (single isomer, unassigned) [92b] . Is its IC50 strictly less than 5000 nM?
Solution: class 0

Exercise: Consider the compound Nc1ccc2c(F)ccc(-c3c(Cl)cc4c(N5CC6CCC(C5)N6)nc(OCC5(CN6CCOCC6)CC5)nc4c3F)c2n1 [Example 52] . Is its IC50 strictly less than 5000 nM?
Solution: class 1

Exercise: Consider the compound CN(C)CC1(COc2nc(N3CC4CCC(C3)N4)c3cc(Cl)c(-c4cc(O)ccc4[Si](C)(C)C)c(F)c3n2)CC1 [Example 45] . Is its IC50 strictly less than 5000 nM?
Solution: class 0

Exercise: Consider the compound Cc1cc2[nH]ncc2c(-c2c(F)cc3c(N4C[C@H]5CC[C@@H](C4)N5)nc(OCC4(CN(C)C)CC4)nc3c2F)c1Cl [Example 65] . Is its IC50 strictly less than 5000 nM?
Solution: class 0
